System: Vibrio cholerae
Test: Antimicrobial activity against Vibrio cholerae MTCC 3906 after 24 to 48 hr by broth microdilution method
Type: functional
property: log10(MIC) (log10 of the value in µg/mL)

# compound, quantitative.readout
records = [
    ("CC1(C)S[C@@H]2[C@H](NC(=O)[C@H](N)c3ccccc3)C(=O)N2[C@H]1C(=O)O", 2.00),
    ("COc1ccc2[nH]c(=O)c(C3NC(=O)NC4=C3C(=O)CC(C)(C)C4)cc2c1 (centres undefined)", 1.70),
    ("CC1(C)CC(=O)C2=C(C1)NC(=S)NC2c1cc2cc(Cl)ccc2[nH]c1=O (centres undefined)", 1.70),
    ("O=C1CCCC2=C1C(c1cc3cc(Cl)ccc3[nH]c1=O)NC(=S)N2 (centres undefined)", 2.40),
    ("Cc1ccc2[nH]c(=O)c(C3NC(=S)NC4=C3C(=O)CCC4)cc2c1 (centres undefined)", 2.70),
    ("CC1(C)CC(=O)C2=C(C1)NC(=O)NC2c1cc2ccccc2[nH]c1=O (centres undefined)", 2.40),
    ("O=C1NC2=C(C(=O)CCC2)C(c2cc3ccccc3[nH]c2=S)N1 (centres undefined)", 2.70),
    ("Cc1ccc2[nH]c(=O)c(C3NC(=S)NC4=C3C(=O)CC(C)(C)C4)cc2c1 (centres undefined)", 2.00),
    ("O=C(O)c1cn(C2CC2)c2cc(N3CCNCC3)c(F)cc2c1=O", 1.40),
]
